All figures here come from the supplement of paper PMC9170038.

Tested on: MS2 coat protein
Assay method text: apparent KD of MS2 coat protein; higher = weaker reporter binding
Particulars: Eterna round: R107; input ligand: theophylline 20 uM
apparent KD of MS2 coat protein vs 70 nM: at or above is yes, below is no.

Macromolecule sequence	System	Classification
AAAUAAAUAACUGAUACCAGUCGGACAACAUGAGGAUCACCCAUGUUCACCCAUGUUGAGGACCCUUGGCAGCAGAAAUAUAAAA [test (nupak+vienna]	MS2 coat protein	yes
GGACUAACCAGAAGGAGCGACACAAGCAGAAACUGCAAUCCUCCGCACGAGGAUCACCCGUGUCAGGUAGGUCGCUGGUUAGUCG [ArgBX 28]	MS2 coat protein	yes
UUUGACGGCGAUCUGGGUUUACCAGAUCGGCGAGGACCGGUACGGCCGCCACUCGUGUUUCUUUGACAUGAGGAUCACCCAUGUA [whbob_SS_trypto A_f2]	MS2 coat protein	no

# input Could you verify whether the entry UCGCAUUGCUGCGAUACCAGACAUGAGGAUCACCCAUGUACCAAGAAAACGUACAUAAAUGUCCCUUGGCAGCGCAGCAAUGCGU [MAT - Exclusion Theophlline B - Mod of Eli - D26] shows apparent KD of MS2 coat protein of no less than 70 nM?
# output yes

# input Could you verify whether the entry GGUUGGUGUAGAGAUAUAUUGAUUACUGAAGGAGCGGGACGAAACCCAGGUAGGUCGCAGAGAUCCACAUGAGGAUCACCCAUGU [!0.M] shows apparent KD of MS2 coat protein of no less than 70 nM?
# output no

# input Could you verify whether the entry CAAUAUAUAACGGCCGCCACUUACUCAUGAGGUAACAACAUGAGGAUCACCCAUGUUUGAGGAUCAAGGACCGGGUUAUAUAUUG [AstrosSSTry#19] shows apparent KD of MS2 coat protein of no less than 70 nM?
# output no
